Target: AR (gene 367) (UniProt P10275)
Sequence (P10275 whole entry, looked up): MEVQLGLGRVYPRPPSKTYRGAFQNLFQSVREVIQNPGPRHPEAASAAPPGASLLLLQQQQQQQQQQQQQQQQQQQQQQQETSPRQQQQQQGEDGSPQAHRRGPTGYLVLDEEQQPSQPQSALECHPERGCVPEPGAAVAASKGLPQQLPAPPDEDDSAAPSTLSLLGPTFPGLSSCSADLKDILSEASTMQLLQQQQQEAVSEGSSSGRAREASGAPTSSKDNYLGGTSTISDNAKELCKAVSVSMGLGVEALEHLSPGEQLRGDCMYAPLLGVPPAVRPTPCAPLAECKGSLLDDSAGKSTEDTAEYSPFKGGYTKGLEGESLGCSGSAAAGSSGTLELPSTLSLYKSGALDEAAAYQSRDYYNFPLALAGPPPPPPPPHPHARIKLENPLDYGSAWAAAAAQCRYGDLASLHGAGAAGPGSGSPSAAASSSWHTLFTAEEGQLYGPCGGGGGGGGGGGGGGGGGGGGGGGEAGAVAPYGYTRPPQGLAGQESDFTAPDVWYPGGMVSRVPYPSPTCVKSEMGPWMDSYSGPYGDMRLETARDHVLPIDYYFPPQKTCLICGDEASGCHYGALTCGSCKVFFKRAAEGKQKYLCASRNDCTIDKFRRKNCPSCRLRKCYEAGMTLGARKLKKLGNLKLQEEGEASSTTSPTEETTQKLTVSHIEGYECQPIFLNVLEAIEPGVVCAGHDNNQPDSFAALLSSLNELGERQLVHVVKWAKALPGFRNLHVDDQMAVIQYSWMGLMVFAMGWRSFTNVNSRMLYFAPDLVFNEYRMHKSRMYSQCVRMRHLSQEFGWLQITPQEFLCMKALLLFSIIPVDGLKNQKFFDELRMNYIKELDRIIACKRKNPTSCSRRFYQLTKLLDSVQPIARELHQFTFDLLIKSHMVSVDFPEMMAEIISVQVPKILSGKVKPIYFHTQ
Test: ACEA_AR_antagonist_80hr: ACEA Biosciences xCELLigence Real-Time Cell Analysis on Androgen Receptor Antagonism for Proliferation (AID 2283787);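 note: 22Rv1 human prostate cancer cells with growth followed by electrical impedance; hits lower the impedance growth signal relative to DMSO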
Records with an inconclusive call do not appear. The source made the active and inactive calls. Rule for the calls: active = hit-call score of the fitted dose curve at least 0.9, where 1 is the maximum; inconclusive = response in the unintended direction; inactive = score below 0.9.
Readout label: AC50

compound=CC(=Cc1ccccc1)[N+](=O)[O-] measured_target="AR (gene 367) (UniProt P10275)" readout_label=AC50 data_value="6.33 µM (active)"
compound="C=CC(Cl)CCl (centres undefined)" measured_target="AR (gene 367) (UniProt P10275)" readout_label=AC50 data_value=inactive
compound="O=C(NC(=O)c1c(F)cccc1F)Nc1cc(Cl)c(OC(F)(F)C(F)C(F)(F)F)cc1Cl (centres undefined)" measured_target="AR (gene 367) (UniProt P10275)" readout_label=AC50 data_value="6.32 µM (active)"
compound=Cc1cc(Cl)ccc1OCCCC(=O)O measured_target="AR (gene 367) (UniProt P10275)" readout_label=AC50 data_value=inactive

====

Molecular target: Transcription factor E2F1 (Homo sapiens) (UniProt Q01094)
Sequence (Q01094 whole entry, looked up): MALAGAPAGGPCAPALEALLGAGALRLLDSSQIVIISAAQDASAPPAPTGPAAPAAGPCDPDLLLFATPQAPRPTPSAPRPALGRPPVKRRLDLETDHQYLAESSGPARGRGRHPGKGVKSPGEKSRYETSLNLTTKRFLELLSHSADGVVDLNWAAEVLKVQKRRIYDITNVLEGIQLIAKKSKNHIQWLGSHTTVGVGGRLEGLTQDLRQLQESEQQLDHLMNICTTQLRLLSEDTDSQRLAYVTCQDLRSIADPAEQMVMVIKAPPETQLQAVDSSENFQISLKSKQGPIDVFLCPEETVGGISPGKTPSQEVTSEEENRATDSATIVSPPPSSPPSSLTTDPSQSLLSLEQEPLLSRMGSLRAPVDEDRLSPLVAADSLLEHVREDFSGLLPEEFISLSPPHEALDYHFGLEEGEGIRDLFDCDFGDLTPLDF
Test: ATG_E2F_CIS: Attagene CIS-FACTORIAL HepG2 Assay for human E2F Transcription Factor 1 (AID 2282935)
Conditions: HepG2 Attagene cis-reporter, E2F reporter RNA transcripts; actives raise or lower the signal
The source made the active and inactive calls. How the source made its calls: active means hit-call score of the fitted dose curve at least 0.9, where 1 is the maximum; inactive means score below 0.9.
Readout label: outcome

compound=ClCCN1CCOCC1 data_value=inactive
compound=c1ccc(-c2cccc(-c3ccccc3)c2)cc1 data_value=inactive
compound=Cc1cc(-c2cc(C)c(N)c(C)c2)cc(C)c1N data_value=inactive
compound="O=S1OC[C@@H]2[C@H](CO1)[C@]1(Cl)C(Cl)=C(Cl)[C@@]2(Cl)C1(Cl)Cl (stereo partly drawn)" data_value=inactive

Quick one: outcome of CCOC(=O)C(SP(=S)(OC)OC)c1ccccc1 (stereo not drawn) ? inactive

// returns reported outcome for input `O=S(=O)(Oc1ccc(Cl)cc1)c1ccc(Cl)cc1` inactive

Please report the recorded outcome for `Nc1cccnc1` . inactive

Consider the compound `O=C(CBr)c1ccc(O)cc1` and give its measured outcome. inactive

Please report the recorded outcome for `O=c1[nH]c(=O)n(Cl)c(=O)n1Cl` . inactive

Give its outcome value. Item: `OC[P+](CO)(CO)CO` inactive

Need outcome of `CCOc1cc(C=O)ccc1O` , thanks. inactive

Form field: reported outcome of `Brc1c(Br)c(Br)c(Oc2c(Br)c(Br)c(Br)c(Br)c2Br)c(Br)c1Br` inactive

Form field: reported outcome of `CCOP(=S)(OCC)SCS(=O)(=O)C(C)(C)C` inactive

====

Read-out: Monokine induced gamma interferon (MIG), CXCL9 (gene 4283)
Experiment: BSK_3C_MIG: BioMAP Diversity Plus: 3C Assay for Monokine induced gamma interferon (MIG) Biomarker Activity (AID 2283021)
Conditions: primary human endothelial cells (HUVEC); actives raise or lower the signal
Activity calls are given as the source filed them. The calls were made as follows: active = hit-call score of the fitted dose curve at least 0.9, where 1 is the maximum; inactive = score below 0.9.
Outcome (select one): true (1) = active, false (0) = inactive

compound=Oc1cc(Cl)c(Cl)cc1Cl class_label="false (0)"
compound=O=C(CCl)NCO class_label="false (0)"
compound=C[C@]12CC[C@@H](O)C[C@@H]1CC[C@@H]1[C@@H]2CC[C@]2(C)C(=O)CC[C@@H]12 class_label="false (0)"
compound=O=[N+]([O-])c1cccc2ccccc12 class_label="false (0)"

Per the assay record, what outcome was assigned to `CCCCCCCCCCCCN(C)C` ? false (0)

// outcome(item) with item = `Cc1ccc2nc3sc(=O)sc3nc2c1` true (1)

Per the assay record, what outcome was assigned to `Cc1ccccc1OP(=O)(Oc1ccccc1)Oc1ccccc1` ? false (0)

Name the outcome recorded for OC(Cc1ccccc1Cl)(Cn1[nH]cnc1=S)C1(Cl)CC1 (stereo not drawn) in the assay. false (0)
